Source: the Immune Epitope Database (IEDB)

- tgt: HLA-A*69:01
- assayInfo: IEDB peptide-MHC binding, purified MHC/competitive/fluorescence; filed as Kd, often an IC50 or EC50 that approximates it; bounds were set here for any values at or beyond the usual limits of such assays
- conditions: source organism: Cryptosporidium parvum Iowa II
measurementLabel: Kd

In [3]: df
Out[3]:
   chainsequence  reading
0      KLYLRPWWH  ≥ 20 µM

###

- tgt: HLA-A*69:01
- assayInfo: IEDB peptide-MHC binding, purified MHC/competitive/fluorescence; filed as Kd, often an IC50 or EC50 that approximates it; bounds were set here for any values at or beyond the usual limits of such assays
- conditions: source organism: Burkholderia pseudomallei 91
measurementLabel: Kd

>>> df
   chainsequence  measurementlabel  reading
0      RAYAAMHLW                Kd  ≥ 20 µM

###

- tgt: HLA-A*02:19
- assayInfo: IEDB peptide-MHC binding, purified MHC/direct/fluorescence; filed as Kd, often an IC50 or EC50 that approximates it; bounds were set here for any values at or beyond the usual limits of such assays
- conditions: source organism: Orthohantavirus negraense
measurementLabel: Kd

   chainsequence          tgt  measurementlabel  reading
0      ILYMLSWGK  HLA-A*02:19                Kd  ≥ 20 µM

###

- tgt: HLA-B*18:01
- assayInfo: IEDB peptide-MHC binding, purified MHC/competitive/fluorescence; filed as Kd, often an IC50 or EC50 that approximates it; bounds were set here for any values at or beyond the usual limits of such assays
- conditions: source organism: Burkholderia vietnamiensis G4
pKd: −log10 of the molar value.
measurementLabel: pKd

   chainsequence  measurementlabel  reading
0      PLFKRGWRL               pKd   ≤ 4.70

###

- tgt: HLA-A*23:01
- assayInfo: IEDB peptide-MHC binding, purified MHC/competitive/fluorescence; filed as Kd, often an IC50 or EC50 that approximates it; bounds were set here for any values at or beyond the usual limits of such assays
- conditions: source organism: Escherichia coli 536
pKd: −log10 of the molar value.
measurementLabel: pKd

>>> print(df.to_string())
   chainsequence          tgt  measurementlabel  reading
0      QTDNDIWFW  HLA-A*23:01               pKd   ≤ 4.70

###

- tgt: HLA-B*46:01
- assayInfo: IEDB peptide-MHC binding, purified MHC/competitive/fluorescence; filed as Kd, often an IC50 or EC50 that approximates it; bounds were set here for any values at or beyond the usual limits of such assays
- conditions: source organism: Reston ebolavirus - Reston (1989)
measurementLabel: Kd

>>> print(df.to_string())
   chainsequence  measurementlabel  reading
0      GRYNLVPPK                Kd  ≥ 20 µM

###

# Lookup of reported pKd keyed by entry
- tgt: HLA-A*02:19
- assayInfo: IEDB peptide-MHC binding, purified MHC/direct/fluorescence; filed as Kd, often an IC50 or EC50 that approximates it; bounds were set here for any values at or beyond the usual limits of such assays
- conditions: source organism: Orthohantavirus andesense
pKd: −log10 of the molar value.
measurementLabel: pKd

   chainsequence          tgt  measurementlabel  reading
0      AVEDFLAFF  HLA-A*02:19               pKd   ≤ 4.70
1      DAVEDFLAF  HLA-A*02:19               pKd   ≤ 4.70
